# System: HCC-2998 colon
# experiment: NCI-60 one-dose screen, 48 h
# condition-description: 10 µM unless noted
The panel holds about 83,000 compounds, 20% with a hit somewhere; the sample as a whole holds those more often. Calls of active or inactive are those of the source. The calls were made as follows: active = growth percent below 10; inactive = the rest.
Return exactly one item of active, inactive

Please review the following examples before continuing.
{"compound": "CCc1ccccc1NC(=O)c1sc2nc3c(cc2c1N)CCCC3", "class-name": "inactive"}
{"compound": "CN(CSc1ccc(Cl)cc1)c1ccc(CSc2ccc(Cl)cc2)cc1", "class-name": "inactive"}
{"compound": "c1csc(-c2nc(-c3cc4ccccc4c(N4CCOCC4)n3)cs2)c1", "class-name": "inactive"}
{"compound": "N#C/C(=C\\c1ccc(-c2cccc(C(F)(F)F)c2)o1)c1nc(-c2ccco2)cs1", "class-name": "inactive"}

Challenge: Hey, what did the test say about `Cc1cc(N2CCCCC2)nc(N(CCCNc2ccnc3cc(Cl)ccc23)Cc2ccco2)n1` ?
Response given: inactive

Challenge: Hey, what did the test say about `COc1ccc(O)c(-c2cc(-c3ccc(Cl)cc3)c(C#N)c(=O)[nH]2)c1` ?
Response given: inactive

Challenge: Hey, what did the test say about `COc1ccc(NC(=O)c2ccc3c(c2)nc(-c2cc4ccccc4[nH]c2=O)n3-c2cc(C(C)(C)C)[nH]n2)cc1` ?
Response given: inactive

Challenge: Hey, what did the test say about c1ccc(C2Cc3ccccc3C2=NC2CCCCC2)cc1 (stereo unspecified) ?
Response given: inactive

Challenge: Hey, what did the test say about `C=CC(=O)N[C@H](Cc1ccc(-c2cc(Cl)cc(Cl)c2)cc1)[C@H](O)[C@@H](O)C(=O)O` ?
Response given: inactive

Challenge: Hey, what did the test say about `O=S(=O)(NCCCNc1cc(-c2cn(-c3ccccc3)nc2-c2cccc(O)c2)ccn1)c1ccc(F)cc1` ?
Response given: active

Challenge: Hey, what did the test say about O=C1CN(c2ccccc2)C(=O)C1C(=O)Nc1ccc(Cl)c(Cl)c1 (stereo unspecified) ?
Response given: active

###

# System: SK-OV-3 ovarian
# experiment: NCI-60 one-dose screen, 48 h (100 = growth as untreated, 0 = no growth, -100 = all killed)
# condition-description: 10 µM unless noted
This is part of a sample that, as a whole, favours compounds with a hit. Of some 83,000 tested, about 20% had one in any assay.
Response key: rule met means growth >= 70%; rule not met means growth < 70%.

Please review the following examples before continuing.
{"record-smiles": "COc1cc(C(=O)/C=C/c2cc(-c3ccc4c(c3)OCO4)n[nH]2)cc(OC)c1OC", "class-name": "rule not met"}
{"record-smiles": "CC(C)(C)c1ccc(OCCCCCCCN2CCNCC2)cc1", "class-name": "rule met"}
{"record-smiles": "C[C@@H]1CCCCCCCCC[C@H](O)C(=O)C[C@@H](SC[C@@H](O)C(=O)O)C(=O)O1", "class-name": "rule met"}

Challenge: Test whether the molecule `O=C(NC1=CC(=O)c2ccccc2C1=O)c1ccccc1` records growth of 70% or higher.
Response given: rule not met

Challenge: Test whether the molecule `Cc1ccc2c(c1)c(-c1nc(-c3c[nH]c4ncccc34)cs1)cn2C` records growth of 70% or higher.
Response given: rule met

###

# System: MOLT-4 leukemia
# experiment: NCI-60 one-dose screen, 48 h (100 = growth as untreated, 0 = no growth, -100 = all killed)
# condition-description: 10 µM unless noted
Compounds without any hit were thinned out: in the full panel of roughly 83,000, 20% have a hit.
# label = Yes if growth < 70% else No

Please review the following examples before continuing.
{"compound": "COc1cc2c(cc1-c1c(C)noc1C)ncc1nc(C3CCC(F)(F)CC3)n([C@@H](C)COC(F)F)c12", "class-name": "Yes"}
{"compound": "COc1ccc(-c2nc3c(c(C)nn3-c3ccc(F)cc3)c(=O)[nH]2)cc1", "class-name": "No"}
{"compound": "O=C1C=Cc2ncccc2C1=O", "class-name": "Yes"}

Challenge: Does the reported growth of the following compound sit strictly below 70%? `N#CCCCCCn1c2ccccc2c2c3c(c4c5ccccc5n(CCCCCC#N)c4c21)C(=O)N(O)C3=O`
Response given: No

Challenge: Does the reported growth of the following compound sit strictly below 70%? `CCN(CC)CCCCCNc1cc(OC(=O)c2ccccc2)cc2cccnc12`
Response given: Yes

Challenge: Does the reported growth of the following compound sit strictly below 70%? `CC1(C)C(=O)CC[C@]2(C)[C@H]3C(=O)C=C4[C@@H]5C[C@@](C)(C(=O)NCCNCCN)CC[C@]5(C)CC[C@@]4(C)[C@]3(C)CC[C@@H]12`
Response given: No

Challenge: Does the reported growth of the following compound sit strictly below 70%? `CN(C)c1ccc(-c2ccc(-c3ccc(C(=N)N)c(F)c3)s2)cc1`
Response given: Yes

Challenge: Does the reported growth of the following compound sit strictly below 70%? `Cc1ccc(-c2nn(Cc3cn(-c4cc(C)nc5ccccc45)nn3)c3ncnc(N)c23)cc1`
Response given: Yes

###

The reader will find reported growth values listed item by item below.
# Test system: DU-145 prostate
# experiment: NCI-60 one-dose screen, 48 h (100 = growth as untreated, 0 = no growth, -100 = all killed)
# condition-description: 10 µM unless noted
This is part of a sample that, as a whole, favours compounds with a hit. Of some 83,000 tested, about 20% had one in any assay. Activity calls are given as the source filed them. The calls were made as follows: active = growth percent below 10; inactive = the rest.

{"compound": "CC(=O)O[C@@H]1CCN2C(=O)N(C)c3ccccc3[C@@H]2C1", "endpoint-value": "121% (inactive)"}
{"compound": "CC(C)(C)c1ccc(OP(=S)(N/N=C/c2ccccc2O)Oc2ccc(C(C)(C)C)cc2)cc1", "endpoint-value": "92% (inactive)"}
{"compound": "COc1ccc2[nH]cc(-c3nc(-c4c[nH]c5ncccc45)cs3)c2c1", "endpoint-value": "47.1% (inactive)"}
{"compound": "Cc1cccc(C)c1NC(=O)CSC(=S)N1CCCCC1", "endpoint-value": "108% (inactive)"}

Measured growth (DU-145 prostate), entry `O=c1c(CNc2ccc(S(=O)(=O)Nc3ncccn3)cc2)coc2ccccc12` : 108% (inactive)

Measured growth (DU-145 prostate), entry `CCN1CCN(C(=O)[C@]23CCC(C)(C)C[C@H]2C2=CC[C@@H]4[C@@]5(C)CC/C(=N/O)C(C)(C)[C@@H]5CC[C@@]4(C)[C@]2(C)CC3)CC1` : 86.4% (inactive)

Measured growth (DU-145 prostate), entry `Cn1cc(-c2csc(-c3cn(CCCN4CCCCC4)c4ccc(F)cc34)n2)c2cccnc21` : 98% (inactive)

Measured growth (DU-145 prostate), entry `Fc1ccc(Nc2nnc(-c3ccc(Cl)cc3)o2)cc1` : 107% (inactive)

Measured growth (DU-145 prostate), entry `CCSc1sc(-c2ccc(C)cc2)nc1[P+](c1ccccc1)(c1ccccc1)c1ccccc1` : 4.57% (active)

Measured growth (DU-145 prostate), entry `C/C(=N\Nc1ccc2ccccc2n1)c1ccccn1` : 13.1% (inactive)

Measured growth (DU-145 prostate), entry `CC(C)(C)c1cc(-n2c(-c3ccc(Cl)cc3)nc3cc(C(=O)Nc4ccc(Cl)cc4)ccc32)n[nH]1` : 79.8% (inactive)

Measured growth (DU-145 prostate), entry `COc1ccccc1CNc1nc(N)nc2[nH]c3ccc(O)cc3c12` : 91% (inactive)

Measured growth (DU-145 prostate), entry `C[C@]12CC[C@@H]3c4ccc(O)cc4CC[C@H]3[C@@H]1C[C@H](O)[C@@H]2O` : 94.9% (inactive)

Measured growth (DU-145 prostate), entry `COc1ccc(/C=C2\N=C(c3ccccc3)N(c3cc(OC)c(OC)cc3C(=O)N3N=C(C)CC3=O)C2=O)cc1` : 95.2% (inactive)

Measured growth (DU-145 prostate), entry `N#Cc1c(-c2ccco2)nc2c(c(-c3ccccc3)nn2-c2ccccc2)c1-c1ccc(O)cc1` : 75.8% (inactive)

Measured growth (DU-145 prostate), entry `CC(=O)c1c(C)[nH]c(-c2nc3ccc(N4CCN(C)CC4)cc3[nH]2)c1-c1ccc(OCC2CCOCC2)cc1` : 63.4% (inactive)

Measured growth (DU-145 prostate), entry `O=S(=O)(NCCNc1cc(-c2cn(-c3ccccc3)nc2-c2cccc(O)c2)ccn1)c1ccccc1` : 76.2% (inactive)

Measured growth (DU-145 prostate), entry `O=C(O[C@@H]1Cc2c(O)cc(O)cc2O[C@@H]1c1cc(O)c(O)c(O)c1)c1cc(O)c2c(c1)OCO2` : 99.7% (inactive)

Measured growth (DU-145 prostate), entry c1ccc(CN2C(c3ccccc3)=Nc3ccccc3C2c2c[nH]c3ccccc23)cc1 (centres undefined) : 85.4% (inactive)

Measured growth (DU-145 prostate), entry `O=C(N/N=C\c1c(O)ccc2ccccc12)C1CC1` : 69.1% (inactive)

Measured growth (DU-145 prostate), entry `Cn1cc(-c2nc(-c3c[nH]c4ncccc34)cs2)c2cc(F)ccc21` : 64.4% (inactive)

Measured growth (DU-145 prostate), entry `Cc1cccc2c1NC(=O)[C@@]21[C@H](C(=O)c2ccccc2)[C@]2(C(=O)Nc3ccccc32)[C@H]2CCCN21` : 40% [100 µM] (inactive)

Measured growth (DU-145 prostate), entry `O=C(/C=C\c1ccc2c(c1)OCO2)/C=C/c1ccc2c(c1)OCO2` : 90.7% (inactive)

Measured growth (DU-145 prostate), entry `O=[N+]([O-])c1ccc(/C=N\Nc2ccccc2)cc1` : 97.1% (inactive)
